# protocol.conditions: in n-propanol, 315.15 K
readout.type: solubility (mole fraction)
Give the figure only, with no unit attached.

Inquiry: Consider the molecule CC(C)(C)OC(=O)N[C@@H](CC(=O)O)Cc1cc(F)c(F)cc1F and give its measured solubility (mole fraction).
Reply text: 0.0985

###

# protocol.conditions: in methanol, 280.15 K
readout.type: solubility (mole fraction)
Respond with the number and no other words.

Inquiry: What value of solubility (mole fraction) has been recorded for this entry: CC(C)(C)OC(=O)N[C@@H](CC(=O)O)Cc1cc(F)c(F)cc1F
Reply text: 0.053

###

# protocol.conditions: in ethanol, 330.15 K
readout.type: solubility (mole fraction)
Just the number, please.

Inquiry: Please report the recorded solubility (mole fraction) for CC(C)(C)OC(=O)N[C@@H](CC(=O)O)Cc1cc(F)c(F)cc1F .
Reply text: 0.173

###

# protocol.conditions: in n-propanol, 290.15 K
readout.type: solubility (mole fraction)
# print the numeric value only

Inquiry: Reported solubility (mole fraction), compound CC(C)(C)OC(=O)N[C@@H](CC(=O)O)Cc1cc(F)c(F)cc1F : ____
Reply text: 0.0449

###

# protocol.conditions: in n-butanol, 310.15 K
readout.type: solubility (mole fraction)

Inquiry: Which solubility (mole fraction) value is on record for CC(C)(C)OC(=O)N[C@@H](CC(=O)O)Cc1cc(F)c(F)cc1F ?
Reply text: 0.0735

###

# protocol.conditions: in n-butanol, 330.15 K
readout.type: solubility (mole fraction)

Inquiry: Item under review: CC(C)(C)OC(=O)N[C@@H](CC(=O)O)Cc1cc(F)c(F)cc1F . Reported solubility (mole fraction)?
Reply text: 0.154

###

# protocol.conditions: in ethyl acetate, 315.15 K
readout.type: solubility (mole fraction)
Write no unit; give the number alone.

Inquiry: Can you look up the measured solubility (mole fraction) of CC(C)(C)OC(=O)N[C@@H](CC(=O)O)Cc1cc(F)c(F)cc1F for me?
Reply text: 0.121

###

# protocol.conditions: in methanol, 325.15 K
readout.type: solubility (mole fraction)
Reply: number alone, nothing else.

Inquiry: Quick one: solubility (mole fraction) of CC(C)(C)OC(=O)N[C@@H](CC(=O)O)Cc1cc(F)c(F)cc1F ?
Reply text: 0.178

###

# protocol.conditions: in n-butanol, 320.15 K
readout.type: solubility (mole fraction)
Returns: the value as a bare number; no unit string appended.

Inquiry: Could you tell me which solubility (mole fraction) is on file for CC(C)(C)OC(=O)N[C@@H](CC(=O)O)Cc1cc(F)c(F)cc1F ?
Reply text: 0.103

###

# protocol.conditions: in methanol, 295.15 K
readout.type: solubility (mole fraction)
Lab note: write the figure by itself, no unit.

Inquiry: So what does the record say about solubility (mole fraction) for CC(C)(C)OC(=O)N[C@@H](CC(=O)O)Cc1cc(F)c(F)cc1F ?
Reply text: 0.0751

###

# protocol.conditions: in ethyl acetate, 295.15 K
readout.type: solubility (mole fraction)
I'd appreciate a reply containing only the number, no unit.

Inquiry: Given the molecule CC(C)(C)OC(=O)N[C@@H](CC(=O)O)Cc1cc(F)c(F)cc1F , what is its reported solubility (mole fraction)?
Reply text: 0.0652

###

# protocol.conditions: in ethanol, 325.15 K
readout.type: solubility (mole fraction)
The answer should be a number; do not append a unit.

Inquiry: I am curious: what solubility (mole fraction) value has been reported for CC(C)(C)OC(=O)N[C@@H](CC(=O)O)Cc1cc(F)c(F)cc1F ?
Reply text: 0.147

###

# protocol.conditions: in ethanol, 305.15 K
readout.type: solubility (mole fraction)
Output spec: single numeric token, no unit.

Inquiry: Entry CC(C)(C)OC(=O)N[C@@H](CC(=O)O)Cc1cc(F)c(F)cc1F has what solubility (mole fraction)?
Reply text: 0.0754

###

# protocol.conditions: in ethyl acetate, 320.15 K
readout.type: solubility (mole fraction)
Answer with a number only.

Inquiry: # get_value(readout='solubility (mole fraction)', item= CC(C)(C)OC(=O)N[C@@H](CC(=O)O)Cc1cc(F)c(F)cc1F )
Reply text: 0.14

###

# protocol.conditions: in THF, 325.15 K
readout.type: solubility (mole fraction)
The answer should be written as a number, with no unit following it.

Inquiry: Would you kindly share the measured solubility (mole fraction) for CC(C)(C)OC(=O)N[C@@H](CC(=O)O)Cc1cc(F)c(F)cc1F ?
Reply text: 0.279

###

# protocol.conditions: in ethyl acetate, 285.15 K
readout.type: solubility (mole fraction)
The response must contain the number and no unit.

Inquiry: Field request: solubility (mole fraction) | item: CC(C)(C)OC(=O)N[C@@H](CC(=O)O)Cc1cc(F)c(F)cc1F
Reply text: 0.0477

###

# protocol.conditions: in THF, 305.15 K
readout.type: solubility (mole fraction)
Please reply with the number alone, leaving off any unit.

Inquiry: Reported solubility (mole fraction), compound CC(C)(C)OC(=O)N[C@@H](CC(=O)O)Cc1cc(F)c(F)cc1F : ____
Reply text: 0.163

###

# protocol.conditions: in n-butanol, 305.15 K
readout.type: solubility (mole fraction)
Form rule: numeric answer, no unit written next to it.

Inquiry: Data request, read-out solubility (mole fraction), for CC(C)(C)OC(=O)N[C@@H](CC(=O)O)Cc1cc(F)c(F)cc1F
Reply text: 0.0619

###

# protocol.conditions: in ethyl acetate, 310.15 K
readout.type: solubility (mole fraction)
Just the number, please, no unit attached.

Inquiry: Entry CC(C)(C)OC(=O)N[C@@H](CC(=O)O)Cc1cc(F)c(F)cc1F : reported solubility (mole fraction) = ?
Reply text: 0.104

###

# protocol.conditions: in THF, 300.15 K
readout.type: solubility (mole fraction)
API note: the answer field is a bare number with no unit suffix.

Inquiry: Given the entry CC(C)(C)OC(=O)N[C@@H](CC(=O)O)Cc1cc(F)c(F)cc1F , report its measured solubility (mole fraction).
Reply text: 0.144

###

# protocol.conditions: in ethyl acetate, 305.15 K
readout.type: solubility (mole fraction)
Keep it simple and answer with nothing but the number.

Inquiry: Suppose we examine the compound CC(C)(C)OC(=O)N[C@@H](CC(=O)O)Cc1cc(F)c(F)cc1F ; what solubility (mole fraction) value has been reported?
Reply text: 0.089

###

# protocol.conditions: in n-propanol, 325.15 K
readout.type: solubility (mole fraction)
Reply with the value as a number alone.

Inquiry: For CC(C)(C)OC(=O)N[C@@H](CC(=O)O)Cc1cc(F)c(F)cc1F , what is its reported solubility (mole fraction)?
Reply text: 0.139

###

# protocol.conditions: in ethanol, 280.15 K
readout.type: solubility (mole fraction)
# answer = number (no unit)

Inquiry: GET /values?readout=solubility (mole fraction)&item= CC(C)(C)OC(=O)N[C@@H](CC(=O)O)Cc1cc(F)c(F)cc1F
Reply text: 0.036

###

# protocol.conditions: in ethanol, 295.15 K
readout.type: solubility (mole fraction)
Note: the reply should be a number with no unit written.

Inquiry: Which solubility (mole fraction) reading was recorded for the molecule CC(C)(C)OC(=O)N[C@@H](CC(=O)O)Cc1cc(F)c(F)cc1F ?
Reply text: 0.0559

###

# protocol.conditions: in n-butanol, 280.15 K
readout.type: solubility (mole fraction)
// response body must contain only the number

Inquiry: For the compound CC(C)(C)OC(=O)N[C@@H](CC(=O)O)Cc1cc(F)c(F)cc1F , what solubility (mole fraction) is on record?
Reply text: 0.0274

###

# protocol.conditions: in methanol, 290.15 K
readout.type: solubility (mole fraction)
Answer with the value's number alone.

Inquiry: Need solubility (mole fraction), item CC(C)(C)OC(=O)N[C@@H](CC(=O)O)Cc1cc(F)c(F)cc1F
Reply text: 0.0669

###

# protocol.conditions: in n-propanol, 295.15 K
readout.type: solubility (mole fraction)
Note: the reply should be a number with no unit written.

Inquiry: Would you mind telling me what solubility (mole fraction) value was observed for CC(C)(C)OC(=O)N[C@@H](CC(=O)O)Cc1cc(F)c(F)cc1F ?
Reply text: 0.0522

###

# protocol.conditions: in THF, 290.15 K
readout.type: solubility (mole fraction)
In your answer, state the number alone without any accompanying words.

Inquiry: solubility (mole fraction) lookup needed for CC(C)(C)OC(=O)N[C@@H](CC(=O)O)Cc1cc(F)c(F)cc1F , thanks.
Reply text: 0.116
